# Tested on: PfAP2-LT AP2 domain (GST-tagged)
# experiment description: gcPBM binding intensity (ln(normalized median fluorescence intensity)); higher = stronger DNA binding
Whole data set: some 25,000 sequences, median “ln(normalized median fluorescence intensity)” near 8.9, cut for the highest 2% near 10. The full list was thinned out, with the highest values kept by preference.
test readout: gcPBM binding intensity (ln)

The sequence identified as ACATATATTATTATATGTACATATATTAATTATATA [XGTACX_site3400] registered its gcPBM binding intensity (ln) at 8.66

The sequence identified as AGGATACACAGACACACACACATATATATATATATA [CACACA_site907] registered its gcPBM binding intensity (ln) at 10.5

The sequence identified as ATAAAACAAAGACACACACACATACACAAAAAAAAA [CACACA_site7752] registered its gcPBM binding intensity (ln) at 9.99

The sequence identified as AAGACACAAAAACACACACACATACATACATACATA [CACACA_site454] registered its gcPBM binding intensity (ln) at 9.99

The sequence identified as AAAAAAAAAAGACACACACACACAAATACATACACA [CACACA_site6472] registered its gcPBM binding intensity (ln) at 10.2

The sequence identified as TACACAAGCAGACACACACACATATAGATTTATATA [CACACA_site6715] registered its gcPBM binding intensity (ln) at 9.65

The sequence identified as GGTACATACAGACACACACACAAAAAAAAAAAAATA [CACACA_site6844] registered its gcPBM binding intensity (ln) at 9.81

The sequence identified as TGAAAAAAGAAAAATACACACATATAATATAATATA [CACACA_site2255] registered its gcPBM binding intensity (ln) at 9.02

The sequence identified as AAAAAAAAAAGACACACACACAAATACAAATACATA [CACACA_site6334] registered its gcPBM binding intensity (ln) at 10

Entry source: the supplement of paper PMC11417369
